- SYSTEM NAME: pooled human IgG (human IgG1, 2, 3 and 4)
RECORDED ENDPOINT: Enzyme Activity Endpoint Assay (purified): Fc (ng/µL)
The figure you give is taken to be in ng/µL; do not add the unit.

Query string: So what's the measured Enzyme Activity Endpoint Assay (purified): Fc for this one? PRT-490 (protein) MVTSVWTKGVTPPTDFIYGEDVLHAPYKAGQGWYDITKTFNGKDNLLCGAATAGNMLHWWFDQNKEQIENYLKKHPEKQKIIFNNQELFDLKAAIDTKDSQLDSKLFEYFKEKAFPYLSTKHLGVFPDHVIDMFINGYRLSLTNHGPTPVKRGSKDKRGGIFDAVFTRGVQSKLLTNRHDFKEKTLKEISDLIKQELTEGKALGISHTYANVRINHVINLWGADFDAEGNLEAIYVTDSDTNASIGMKKYFVGVNSNGKVAISAKEIEEDNIGAQVLGLFTLSTGQDIWNQTNLEHHHHHH
Result string: 243
